- Test system: Escherichia coli TOP10
- procedure_details: shrunken log2 fold change of peptide-encoding DNA abundance (4.5 h post-induction vs induction); higher = less antimicrobial activity (less host growth inhibition)
- test_settings: time post-induction: 4.5 h; library: site-saturation at positions 5, 18, 19, 20
Hi, to clarify the labels: criterion met covers shrunken log2 fold change from 0.2 upward, criterion not met covers anything below 0.2.

As a guide, the following entries are already answered.
- sequence_entry: "RRIRDRPPRLPRPRPRPTLDPRP"
  assigned_class: "criterion met"
- sequence_entry: "RRIRMRPPRLPRPRPRPVWLPRP"
  assigned_class: "criterion met"
- sequence_entry: "RRIRQRPPRLPRPRPRPSWHPRP"
  assigned_class: "criterion not met"

Qu. Answer whether shrunken log2 fold change of RRIRHRPPRLPRPRPRPPLTPRP is greater than or equal to 0.2.
Ans. criterion not met

Qu. Kindly determine if shrunken log2 fold change recorded for RRIRFRPPRLPRPRPRPHINPRP is above or exactly 0.2.
Ans. criterion not met

###

Overview of recorded shrunken log2 fold change for various sequences
- Tested on: Escherichia coli TOP10
- procedure_details: shrunken log2 fold change of peptide-encoding DNA abundance (4.5 h post-induction vs induction); higher = less antimicrobial activity (less host growth inhibition)
- test_settings: time post-induction: 4.5 h; library: site-saturation at positions 5, 18, 19, 20
Please respond with just the number, no unit label.

- sequence_entry: "RRIRKRPPRLPRPRPRPMNCPRP"
  assay_system: "Escherichia coli TOP10"
  shrunken log2 fold change: -0.014
- sequence_entry: "RRIRCRPPRLPRPRPRPGVIPRP"
  assay_system: "Escherichia coli TOP10"
  shrunken log2 fold change: -0.0294
- sequence_entry: "RRIRERPPRLPRPRPRPYQAPRP"
  assay_system: "Escherichia coli TOP10"
  shrunken log2 fold change: 0.019
- sequence_entry: "RRIRERPPRLPRPRPRPLWWPRP"
  assay_system: "Escherichia coli TOP10"
  shrunken log2 fold change: 0.0601
- sequence_entry: "RRIRLRPPRLPRPRPRPSLPPRP"
  assay_system: "Escherichia coli TOP10"
  shrunken log2 fold change: -0.0357

Qu. So what's the measured shrunken log2 fold change for this one? RRIRTRPPRLPRPRPRPPHIPRP
Ans. -0.471

Qu. # get_value(readout='shrunken log2 fold change', item= RRIRYRPPRLPRPRPRPFVQPRP )
Ans. -0.0236

Qu. Can you share its shrunken log2 fold change? I mean this sequence: RRIRQRPPRLPRPRPRPDICPRP
Ans. -0.0144

Qu. Any idea what its shrunken log2 fold change is? The sequence is RRIRFRPPRLPRPRPRPSDIPRP
Ans. -0.385

Qu. Tell me the measured shrunken log2 fold change of RRIRVRPPRLPRPRPRPSACPRP , please.
Ans. -0.768

###

- Test system: Escherichia coli TOP10
- procedure_details: shrunken log2 fold change of peptide-encoding DNA abundance (4.5 h post-induction vs induction); higher = less antimicrobial activity (less host growth inhibition)
- test_settings: time post-induction: 4.5 h; library: site-saturation at positions 5, 18, 19, 20
Label not fulfilled if shrunken log2 fold change falls below -0.01; label fulfilled in every other case.

These solved cases illustrate the format of a correct answer.
- sequence_entry: "RRIRVRPPRLPRPRPRPTTIPRP"
  assay_system: "Escherichia coli TOP10"
  assigned_class: "not fulfilled"
- sequence_entry: "RRIRCRPPRLPRPRPRPMGSPRP"
  assay_system: "Escherichia coli TOP10"
  assigned_class: "fulfilled"
- sequence_entry: "RRIRWRPPRLPRPRPRPKLDPRP"
  assay_system: "Escherichia coli TOP10"
  assigned_class: "fulfilled"

Now for another entry.
Qu. Determine whether this sequence has shrunken log2 fold change no lower than -0.01: RRIRQRPPRLPRPRPRPPMYPRP
Ans. not fulfilled

###

- Test system: Escherichia coli TOP10
- procedure_details: shrunken log2 fold change of peptide-encoding DNA abundance (4.5 h post-induction vs induction); higher = less antimicrobial activity (less host growth inhibition)
- test_settings: time post-induction: 4.5 h; library: site-saturation at positions 5, 18, 19, 20
Rule: shrunken log2 fold change of -0.2 or more gives 1; anything lower gives -1.

Answered examples (3):
- sequence_entry: "RRIRIRPPRLPRPRPRPDMFPRP"
  assigned_class: 1
- sequence_entry: "RRIRNRPPRLPRPRPRPYQMPRP"
  assigned_class: -1
- sequence_entry: "RRIRVRPPRLPRPRPRPDDAPRP"
  assigned_class: 1

Qu. For this sequence, is measured shrunken log2 fold change -0.2 or higher? RRIRHRPPRLPRPRPRPQKRPRP
Ans. -1

Qu. Confirm if shrunken log2 fold change reported for the sequence RRIRTRPPRLPRPRPRPQAAPRP is -0.2 or above.
Ans. 1

Qu. Check if shrunken log2 fold change >= -0.2 (inclusive). Item: RRIRCRPPRLPRPRPRPVTGPRP
Ans. 1

Qu. Would you say RRIRVRPPRLPRPRPRPWYYPRP shows shrunken log2 fold change at minimum -0.2?
Ans. 1

###

- System: Escherichia coli TOP10
- procedure_details: shrunken log2 fold change of peptide-encoding DNA abundance (4.5 h post-induction vs induction); higher = less antimicrobial activity (less host growth inhibition)
- test_settings: time post-induction: 4.5 h; library: site-saturation at positions 5, 18, 19, 20
Response key: t means shrunken log2 fold change >= -0.1; f means shrunken log2 fold change < -0.1.

Here's what some known entries look like.
- sequence_entry: "RRIRYRPPRLPRPRPRPSPDPRP"
  assigned_class: "t"
- sequence_entry: "RRIRWRPPRLPRPRPRPPHMPRP"
  assigned_class: "t"
- sequence_entry: "RRIRRRPPRLPRPRPRPGLTPRP"
  assigned_class: "t"
- sequence_entry: "RRIRMRPPRLPRPRPRPYVMPRP"
  assigned_class: "t"
- sequence_entry: "RRIRPRPPRLPRPRPRPANVPRP"
  assigned_class: "f"
- sequence_entry: "RRIRRRPPRLPRPRPRPYSPPRP"
  assigned_class: "t"
- sequence_entry: "RRIRKRPPRLPRPRPRPWFTPRP"
  assigned_class: "t"
- sequence_entry: "RRIRSRPPRLPRPRPRPRWMPRP"
  assigned_class: "f"

Qu. I'd appreciate it if you could say whether RRIRMRPPRLPRPRPRPPYFPRP has shrunken log2 fold change at least equal to -0.1.
Ans. t

Qu. Threshold query (shrunken log2 fold change >= -0.1) on RRIRVRPPRLPRPRPRPYARPRP
Ans. f

Qu. Evaluate RRIRARPPRLPRPRPRPHDNPRP : shrunken log2 fold change at minimum -0.1?
Ans. t

###

- System: Escherichia coli TOP10
- procedure_details: shrunken log2 fold change of peptide-encoding DNA abundance (4.5 h post-induction vs induction); higher = less antimicrobial activity (less host growth inhibition)
- test_settings: time post-induction: 4.5 h; library: site-saturation at positions 5, 18, 19, 20
# shrunken log2 fold change per record follows
Give the value as a plain number.

The following sequences have reported results that may help.
- sequence_entry: "RRIRPRPPRLPRPRPRPWIMPRP"
  shrunken log2 fold change: -0.236
- sequence_entry: "RRIRRRPPRLPRPRPRPMGGPRP"
  shrunken log2 fold change: 0.083
- sequence_entry: "RRIRKRPPRLPRPRPRPHWPPRP"
  shrunken log2 fold change: 0.31

Proceeding to the next sequence to report its shrunken log2 fold change.
Qu. Quick check: shrunken log2 fold change on Escherichia coli TOP10, item RRIRCRPPRLPRPRPRPCTHPRP ?
Ans. -0.48

###

- Test system: Escherichia coli TOP10
- procedure_details: shrunken log2 fold change of peptide-encoding DNA abundance (4.5 h post-induction vs induction); higher = less antimicrobial activity (less host growth inhibition)
- test_settings: time post-induction: 4.5 h; library: site-saturation at positions 5, 18, 19, 20
Respond with label 1 for shrunken log2 fold change values of -0.3 and above, label 0 for values below.

- sequence_entry: "RRIRVRPPRLPRPRPRPMKTPRP"
  assigned_class: "label 1"

Qu. Threshold query (shrunken log2 fold change >= -0.3) on RRIRGRPPRLPRPRPRPPEFPRP
Ans. label 1

Qu. // inclusive: shrunken log2 fold change at least -0.3? input: RRIRGRPPRLPRPRPRPWRLPRP
Ans. label 1

###

- Tested on: Escherichia coli TOP10;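 note: peptides expressed intracellularly from a pBAD plasmid library in pooled LB shake-flask culture, induced with 0.3% L-arabinose, DNA abundance read by NGS, three biological replicates, DESeq2 with apeglm shrinkage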
- procedure_details: shrunken log2 fold change of peptide-encoding DNA abundance (4.5 h post-induction vs induction); higher = less antimicrobial activity (less host growth inhibition)
- test_settings: time post-induction: 4.5 h; library: site-saturation at positions 5, 18, 19, 20
readout: shrunken log2 fold change
Respond using a number only.

Some entries whose results are on file:
- sequence_entry: "RRIRGRPPRLPRPRPRPWLMPRP"
  shrunken log2 fold change: 0.428
- sequence_entry: "RRIRRRPPRLPRPRPRPLYCPRP"
  shrunken log2 fold change: -0.115
- sequence_entry: "RRIRHRPPRLPRPRPRPALKPRP"
  shrunken log2 fold change: -0.322
- sequence_entry: "RRIRARPPRLPRPRPRPRCTPRP"
  shrunken log2 fold change: 0.392

Qu. Quick one: shrunken log2 fold change of RRIRMRPPRLPRPRPRPNSLPRP ?
Ans. -0.0986

Qu. Data request, read-out shrunken log2 fold change, for RRIRFRPPRLPRPRPRPLGGPRP
Ans. -0.235

Qu. Bench note: what shrunken log2 fold change did RRIRLRPPRLPRPRPRPMRRPRP show?
Ans. 0.412

Qu. // lookup shrunken log2 fold change for RRIRWRPPRLPRPRPRPSYCPRP
Ans. 0.366

Qu. Which shrunken log2 fold change reading was recorded for the sequence RRIRWRPPRLPRPRPRPMYGPRP ?
Ans. -0.0856

Qu. Recorded shrunken log2 fold change of RRIRGRPPRLPRPRPRPTLPPRP , please.
Ans. 0.574
